The values you see were collected from ChEMBL document CHEMBL4004861.

assay: Selectivity index, ratio of IC50 for African green monkey Vero cells to IC50 for bovine liver DHFR
Threshold 200. Ratio IC50 below it: 1.0. Ratio IC50 at it or above: 0.0.

- COc1ccc(-n2c(C(CC(C)C)NS(=O)(=O)c3ccc(N)cc3)nc3ccccc3c2=O)cc1 (stereo not given): 0.0
- CC(C)CC(NS(=O)(=O)c1ccc(N)cc1)c1nc2ccccc2c(=O)n1-c1ccccc1Br (stereo not given): 1.0
- CC(C)CC(NS(=O)(=O)c1ccc(N)cc1)c1nc2ccccc2c(=O)n1-c1ccc(Br)cc1 (stereo not given): 1.0
- CC(C)CC(NS(=O)(=O)c1ccc(N)cc1)c1nc2ccccc2c(=O)n1-c1ccc(Cl)cc1 (stereo not given): 0.0

Next, consider the following compound.
Report whether reported Ratio IC50 is lower than 200 (strictly) for CC(C)CC(NS(=O)(=O)c1ccc(N)cc1)c1nc2ccccc2c(=O)n1-c1cccc(Cl)c1 (stereo not given)
0.0
